System: peripheral blood lymphocytes collected from swine exposed to ASFV
Type: cell-based
PARAMETER: Number of Spots

See these solved cases before continuing.
>  <SUBSTANCE>
1523 (STAQVHLDF) [compound 1523]

>  <Number of Spots>
14

$$$$
>  <SUBSTANCE>
1207 (DYSLTFLLKK) [compound 1207]

>  <Number of Spots>
17

$$$$
>  <SUBSTANCE>
1630 (AMLEFKKFF) [compound 1630]

>  <Number of Spots>
12

$$$$

Req: Please report the recorded Number of Spots for 2127 (AIQKNYFRF) [compound 2127] .
Resp: 15

Req: Please report the recorded Number of Spots for 1511 (RSLSNFQAL) [compound 1511] .
Resp: 17

Req: Please report the recorded Number of Spots for 2222 (ISFSEMLTRYW) [compound 2222] .
Resp: 12

---

Tested on: peripheral blood lymphocytes collected from swine exposed to ASFV
Type: cell-based
PARAMETER: Number of Spots
Would you mind answering with just the numeric figure?

See these solved cases before continuing.
>  <SUBSTANCE>
1212 (TFLLKKRMEL) [compound 1212]

>  <MEASURED_NUMBER>
19

$$$$
>  <SUBSTANCE>
888 (TMMHYPTFNW) [compound 888]

>  <MEASURED_NUMBER>
12

$$$$
>  <SUBSTANCE>
278 (MRIEIFWEL) [compound 278]

>  <MEASURED_NUMBER>
15

$$$$
>  <SUBSTANCE>
1989 (RMHIYETNLY) [compound 1989]

>  <MEASURED_NUMBER>
14

$$$$
>  <SUBSTANCE>
1151 (NLSEVVTAY) [compound 1151]

>  <MEASURED_NUMBER>
16

$$$$
>  <SUBSTANCE>
1633 (ITRQTFMDI) [compound 1633]

>  <MEASURED_NUMBER>
14

$$$$

// next entry
Req: Please report the recorded Number of Spots for 769 (RLNAPNLKY) [compound 769] .
Resp: 13

---

Test system: peripheral blood lymphocytes collected from swine exposed to ASFV
Format: cell-based
Measured Number of Spots, listed per entry.
Would you mind answering with just the numeric figure?

See these solved cases before continuing.
>  <SUBSTANCE>
1528 (KTYTLLTKPY) [compound 1528]

>  <Number of Spots>
13

$$$$
>  <SUBSTANCE>
565 (SKVMDMICLDY) [compound 565]

>  <Number of Spots>
17

$$$$
>  <SUBSTANCE>
1288 (HFNAHFKPY) [compound 1288]

>  <Number of Spots>
16

$$$$
>  <SUBSTANCE>
1264 (RINRNYYPYYI) [compound 1264]

>  <Number of Spots>
12

$$$$

Req: Please report the recorded Number of Spots for 1750 (SMSYFDGKTEY) [compound 1750] .
Resp: 17

Req: Please report the recorded Number of Spots for 1631 (FTQITRQTF) [compound 1631] .
Resp: 12

Req: Please report the recorded Number of Spots for 1701 (YTGIQSPLF) [compound 1701] .
Resp: 13

Req: Please report the recorded Number of Spots for 1543 (NIYNYDYSF) [compound 1543] .
Resp: 12

Req: Please report the recorded Number of Spots for 1567 (QAQEEWNMIL) [compound 1567] .
Resp: 13

Req: Please report the recorded Number of Spots for 2171 (FIRLYPHIFY) [compound 2171] .
Resp: 18

Req: Please report the recorded Number of Spots for 635 (IRGRSLNMLSL) [compound 635] .
Resp: 12

Req: Please report the recorded Number of Spots for 960 (ETTLINCTYL) [compound 960] .
Resp: 13

Req: Please report the recorded Number of Spots for 1111 (RTDFVWVADL) [compound 1111] .
Resp: 13

All values here come from patent US20220105170A1.
